assay: Selectivity ratio expressed as the ratio of -log methoxamine pA2 to -log clonidine pA2
Assay readout: Selectivity ratio
Answers are plain numbers.

Completed entries (count: 3):
CN1CC=C(c2ccccn2)CC1; 6
CN1CCN(c2ncccc2F)CC1; 16
c1ccc(N2CCNCC2)nc1; 5

Query :: Read off the recorded Selectivity ratio for `CN1CC=C(c2ncccc2F)CC1`
Result :: 32

---

Target: Alpha-1A adrenergic receptor (Bos taurus, UniProt P18130)
Sequence (P18130 whole entry): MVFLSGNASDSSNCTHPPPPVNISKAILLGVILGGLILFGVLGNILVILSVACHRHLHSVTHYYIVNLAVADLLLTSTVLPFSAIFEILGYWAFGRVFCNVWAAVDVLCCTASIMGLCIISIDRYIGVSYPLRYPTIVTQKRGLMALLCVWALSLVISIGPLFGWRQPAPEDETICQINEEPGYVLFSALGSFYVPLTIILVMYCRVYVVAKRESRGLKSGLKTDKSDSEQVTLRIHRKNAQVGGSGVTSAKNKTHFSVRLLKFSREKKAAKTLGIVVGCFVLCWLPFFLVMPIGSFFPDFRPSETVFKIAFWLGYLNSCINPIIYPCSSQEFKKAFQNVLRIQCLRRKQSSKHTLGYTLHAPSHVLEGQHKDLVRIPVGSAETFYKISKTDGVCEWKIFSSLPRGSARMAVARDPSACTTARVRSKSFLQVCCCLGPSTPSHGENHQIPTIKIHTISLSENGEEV
Can you tell me Ki for the items I'm about to list?
Answers are plain numbers, in nM.

Completed entries (count: 4):
CN1CC=C(c2ccncc2F)CC1; 7700
CN1CCC(c2ccccn2)CC1; 2500
CN1CC=C(c2ccccn2)CC1; 2500
C1=C(c2ccccn2)CCNC1; 4000

// for each molecule in input: emit Ki
1. CN1CC=C(c2cccnc2)CC1
2. CN1CC=C(c2ncccc2F)CC1
3. CN1CC=C(c2ncccc2Cl)CC1

Result ::
1. 4800
2. 3300
3. 2260

Query :: Report the value of Ki obtained on Alpha-1A adrenergic receptor (Bos taurus, UniProt P18130) for `Cc1cccnc1C1=CCN(C)CC1` .
Result :: 2500

---

Can you tell me pA2 for the items I'm about to list?
biological target: Adrenergic receptor alpha-2 (Rattus norvegicus, UniProt P22086+P19328+P22909); test: Antagonistic activity against clonidine-stimulated rat vas deferens presynaptic alpha-2 adrenergic receptor; type: functional, tissue-based

Completed entries (count: 2):
Cc1cccnc1C1=CCN(C)CC1; < 5.8
CN1CC=C(c2ncccc2Cl)CC1; < 5.9

// for each compound in input: emit pA2
1. CN1CCC(c2ccccn2)CC1
2. CN1CC=C(c2ccncc2F)CC1
3. CN1CC=C(c2ncccc2F)CC1
4. CN1CC=C(c2ccccn2)CC1
5. C1=C(c2ccccn2)CCNC1
6. CN1CC=C(c2cccnc2)CC1

Result ::
["< 5.8", "< 5.8", 6.8, 6.2, "< 5.7", "< 5.8"]

---

assay: Relative binding to alpha-1a and alpha-2 adrenergic receptors (ratio of Ki-prazosin and Ki-clonidine)
Can you tell me Selectivity ratio for the items I'm about to list?
Give bare numbers.

Completed entries (count: 6):
c1ccc(N2CCNCC2)nc1; 65
CN1CC=C(c2ncccc2F)CC1; 150
CN1CCC(c2ccccn2)CC1; 6
C1=C(c2ccccn2)CCNC1; 28
CN1CCN(c2ncccc2F)CC1; 98
Cc1cccnc1C1=CCN(C)CC1; 15

// for each molecule in input: emit Selectivity ratio
1. CN1CC=C(c2cccnc2)CC1
2. CN1CC=C(c2ccccn2)CC1
3. CN1CC=C(c2ncccc2Cl)CC1
4. CN1CC=C(c2ccncc2F)CC1

Result ::
[6.4, 44, 31, 11]

---

assay: Displacement of [3H]clonidine from calf cerebral cortex alpha-2 adrenergic receptor; type: tissue-based, Bos taurus
Assay readout: Ki
Answer with the number, then the unit.

Cc1cccnc1C1=CCN(C)CC1; 170 nM

// for each compound in input: emit Ki
1. c1ccc(N2CCNCC2)nc1
2. CN1CCN(c2ncccc2F)CC1
3. CN1CCC(c2ccccn2)CC1
4. C1=C(c2ccccn2)CCNC1
5. CN1CC=C(c2ccncc2F)CC1
6. CN1CC=C(c2ccccn2)CC1

Result ::
1. 37 nM
2. 5 nM
3. 420 nM
4. 144 nM
5. 720 nM
6. 57 nM

// for each compound in input: emit Ki
1. CN1CC=C(c2ncccc2Cl)CC1
2. CN1CC=C(c2ncccc2F)CC1

Result ::
1. 72 nM
2. 22 nM

Query :: Read off the recorded Ki for `CN1CC=C(c2cccnc2)CC1`
Result :: 750 nM
